Staphylococcus aureus ATCC 43300 data, read-out MIC
measured.attribute: MIC (µg/mL)

CC(=CCO)CCC=C(C)C(C)CCCC(C)C (centres unmarked) [Compound 26]
32

(a) CC(=O)OC/C=C(\C)CCC=CC(C)CCC=C(C)C (centres unmarked) [Compound 31]
(b) O=C(O)c1cn(C2CC2)c2cc(N3CCNCC3)c(F)cc2c1=O [Ciprofloxacin, reference compound]
(c) CNC(C)C1CCC(N)C(OC2C(N)CC(N)C(OC3OCC(C)(O)C(NC)C3O)C2O)O1 (centres unmarked) [Gentamicin, reference compound]
Q: Endpoint returns the given molecules ordered by ascending MIC. Reply with the labels, ordered as the question asks.
Result: b, c, a

(A) CC(C)=CCCC(C)CC(C)=CC=O (centres unmarked) [Compound 21, 3,5,9-Trimethyldeca-2,8-dienal]
(B) CC(=CC=O)CCC=C(C)C(C)CCCC(C)C (centres unmarked) [Compound 20, 3,7,8,12-Tetramethyltrideca-2,6-dienal]
Q: Which entry has a larger number for MIC, A or B ? Return value: the label identifying the chosen record.
Result: A
(A: 32 µg/mL, B: 22 µg/mL)
